test system: HCT-15 colon; test: NCI tumour cell line growth inhibition, 48 h
measure: TGI

Example cases with answers are listed next.
Entry O=[N+]([O-])c1ccc(Cl)cc1C1SCc2nc3ccccc3n21 (configuration not stated) has what TGI?
> 100 µM

Entry COC(=O)C1=C(c2ccc3c(c2)OCO3)OC(c2cc(OC)c(OC)c(OC)c2)C1 (configuration not stated) has what TGI?
15.2 µM

Entry Cc1nc(Nc2nc3ccccc3o2)nc(-c2cccc([N+](=O)[O-])c2)c1C(=O)Nc1ccc(F)c(Cl)c1 has what TGI?
> 100 µM

Give TGI for each listed item.
1. C=CCn1c(-c2ccc(-c3cs/c(=N\N=O)n3CC=C)cc2)cs/c1=N\N=O
2. CC(C)CCN[C@@H]1CCc2cc(O)c(N3CC(=O)NS3(=O)=O)c(F)c2C1
3. CC(C)COC(=O)c1ccc2[nH]c(O)c(C=Nc3ccc(S(N)(=O)=O)cc3)c2c1

1. > 100 µM
2. > 100 µM
3. 25 µM

Give TGI for each listed item.
1. Cc1cccc2c(N)c3ccccc3nc12
2. COc1cc(C(=O)Oc2c(C#N)sc3c2c(=O)n(-c2ccccc2)c(=S)n3-c2ccccc2)cc(OC)c1OC
3. O=C1c2ccccc2-c2c1c(-c1cccc(Br)c1)nc1ccc3ccccc3c21
4. CCCCCCC(/C=N/O)C(C)(O)CCC (configuration not stated)
5. COc1cc(C2C(Cl)C(=O)N2NC(=O)c2ccc(NC(C)=O)cc2OC)ccc1O (configuration not stated)
6. O=C(O)CCSC(=O)Nc1ccc(N=Nc2ccccc2)cc1
7. N#Cc1cc(S(=O)(=O)Nc2nc3ccccc3s2)c(SCc2ccccc2)cc1Cl
8. COc1ccc2c(c1)CCC(OS(=O)(=O)CC13CCC(CC1=O)C3(C)C)C2=O (configuration not stated)

10.4 µM
43 µM
> 100 µM
> 100 µM
40.6 µM
> 100 µM
66.4 µM
92 µM

Give TGI for each listed item.
1. CN1CC(=O)N(C)c2nc[nH]c2C1=O
2. O=C1C=CC(CC(=O)c2ccc3ccccc3c2)O1 (configuration not stated)
3. ClCc1ccc(Cn2cnc3c(Cl)nc(Cl)nc32)cc1

1: > 100 µM; 2: 50.4 µM; 3: 3.77 µM
